- assayed_system: Cyclin-dependent kinase 2/cyclin E1 (Homo sapiens, UniProt P24941)
- run_description: Inhibition of recombinant full-length human C-terminal His6-tagged CDK2/recombinant full-length human N-terminal GST-tagged cyclin E using fluorescein-QSPKKG-CONH2 as substrate after 60 mins by off-chip mobility shift assay
pIC50: −log10 of the molar value.

structure_string | pIC50
Cc1c(Nc2ccc(OCCN(C)C)cn2)ncnc1-n1cnc2ccccc21 | 4.18

###

- assayed_system: CDK9/cyclin T1 (Homo sapiens, UniProt P50750)
- Sequence (O60563 whole entry): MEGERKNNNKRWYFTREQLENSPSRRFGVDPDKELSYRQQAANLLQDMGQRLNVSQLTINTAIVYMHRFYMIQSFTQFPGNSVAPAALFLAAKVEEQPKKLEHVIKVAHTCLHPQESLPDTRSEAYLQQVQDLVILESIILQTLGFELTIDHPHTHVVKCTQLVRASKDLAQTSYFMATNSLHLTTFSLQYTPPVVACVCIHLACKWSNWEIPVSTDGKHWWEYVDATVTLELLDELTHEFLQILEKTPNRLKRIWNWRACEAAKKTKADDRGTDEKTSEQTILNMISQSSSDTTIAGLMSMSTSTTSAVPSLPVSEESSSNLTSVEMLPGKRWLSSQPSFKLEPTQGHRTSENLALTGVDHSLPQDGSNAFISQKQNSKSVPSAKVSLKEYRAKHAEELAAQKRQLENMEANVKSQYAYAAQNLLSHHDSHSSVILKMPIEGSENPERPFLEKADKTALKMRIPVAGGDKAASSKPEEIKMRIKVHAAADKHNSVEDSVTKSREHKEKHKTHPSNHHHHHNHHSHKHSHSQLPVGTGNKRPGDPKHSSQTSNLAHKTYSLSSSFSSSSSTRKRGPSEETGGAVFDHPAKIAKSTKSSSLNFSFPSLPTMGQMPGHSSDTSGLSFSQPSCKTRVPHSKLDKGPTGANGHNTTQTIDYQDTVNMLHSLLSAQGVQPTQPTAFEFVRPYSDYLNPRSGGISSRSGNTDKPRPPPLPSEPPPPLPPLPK
- Sequence (P50750 whole entry): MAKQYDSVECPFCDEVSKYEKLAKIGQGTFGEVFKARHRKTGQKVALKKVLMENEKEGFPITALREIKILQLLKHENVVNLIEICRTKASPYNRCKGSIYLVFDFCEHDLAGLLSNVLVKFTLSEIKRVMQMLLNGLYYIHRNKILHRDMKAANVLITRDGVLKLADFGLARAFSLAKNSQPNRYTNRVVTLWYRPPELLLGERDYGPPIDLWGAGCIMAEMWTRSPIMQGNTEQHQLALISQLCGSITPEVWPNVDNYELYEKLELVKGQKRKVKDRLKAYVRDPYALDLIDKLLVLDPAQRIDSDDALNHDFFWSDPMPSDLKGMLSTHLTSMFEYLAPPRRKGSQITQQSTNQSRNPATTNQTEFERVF
measurement_kind: IC50 (nM)

structure_string | numeric_result
c1cnc2ncn(-c3cc(Nc4ccc(OCCN5CCCCC5)cn4)ncn3)c2c1 | 3

###

- run_description: Cytotoxicity against human U2OS cells assessed as growth inhibition after 96 hrs by SRB assay
- Format: functional, cell-based
pIC50: −log10 of the molar value.

structure_string | pIC50
c1cnc2ncn(-c3cc(Nc4ccc(OCCN5CCCCC5)cn4)ncn3)c2c1 | 8.30
